Entry source: patent JP2006306895A

- Experimental Target: T1, ヒトPTHrP(1-34) (human)
- T1 construct: Synthetic peptide, coated on ELISA plates (Peptide Institute) or mixed with antibody in the cAMP neutralisation assay; also called human parathyroid hormone related protein (1-34)
- Method Description: ELISA, plate-coated human PTHrP(1-34)
Property Measured: binding result

ヒト型化H鎖バージョン"a"とキメラL鎖を組み合わせた抗体 (antibody, V domains shown, Human Cγ1 H chain C region; also called humanized H chain version a + chimeric L chain) VH: QVQLVESGGGVVQPGRSLRLSCAASGFTFSSYGMSWVRQAPGKGLEWVATISSGGSYTYYPDSVKGRFTISRDNSKNTLYLQMNSLRAEDTAVYYCARQTTMTYFAYWGQGTLVTVSS VL: QLVLTQSSSASFSLGASAKLTCTLSSQHSTYTIEWYQQQPLKPPKYVMDLKQDGSHSTGDGIPDRFSGSSSGADRYLSISNIQPEDEAMYICGVGDTIKEQFVYVFGGGTKVTVLG :: binds
ヒト型化#23-57-137-1抗体 L鎖バージョン"m" (antibody, V domains shown, Humanized H chain version a with human Cγ1; human lambda L chain C region; also called hMBC1HcDNA/pCOS1 + hMBC1Lmλ/pCOS1; version m) VH: QVQLVESGGGVVQPGRSLRLSCAASGFTFSSYGMSWVRQAPGKGLEWVATISSGGSYTYYPDSVKGRFTISRDNSKNTLYLQMNSLRAEDTAVYYCARQTTMTYFAYWGQGTLVTVSS VL: QLVLTQSPSASASLGASVKLTCTLSSQHSTYTIEWYQQQPEKGPRYLMDLKQDGSHSTGDGIPDRFSGSSSGAERYLTISSLQSEDEADYYCGVGDTIKEQFVYVFGGGTKLTVLG :: binds
